Source: PubChem BioAssay (NCI)

Documented TGI across a set of compounds
- Tested on: OVCAR-8 ovarian
- procedure-details: NCI tumour cell line growth inhibition, 48 h

CC(C)CCC[C@@H](C)[C@H]1CC[C@H]2C3=C[C@H](OS(=O)(=O)O)[C@@]4(O)C[C@@H](O)CC[C@]4(C)[C@@]3(O)CC[C@]12C | > 100 µM
Cc1ccc(C2=Nc3ccccc3SC(c3cccc4c3OCO4)C2)cc1 (centres undefined) | 65.3 µM
O=c1[nH]c(=S)[nH]c(-c2ccccc2)c1Cc1c(O)ccc2ccccc12 | > 100 µM
Nc1ccc(-c2nc3ccc(F)cc3s2)cc1I | > 100 µM
CCC(C)N1CN(c2ccccc2)C2(CCN(CCCSc3ccc(F)cc3)CC2)C1=O (centres undefined) | 21.5 µM

TGI for "Nc1c(Cl)cc(-c2nc3ccccc3s2)cc1Cl" ?
> 100 µM

TGI for "FC(F)(F)c1cccnc1Sc1nc2ccccc2s1" ?
> 100 µM

TGI for O=C(N/N=C(\C1=Nc2ccc(Cl)cc2NC1O)C(O)/C=C/c1ccccc1)c1ccncc1 (centres undefined) ?
> 100 µM

TGI for "CC(=O)O[C@@H]1[C@H]2[C@@H](OC(=O)c3ccccc3)[C@@H](C)C[C@]2(O)[C@H](OC(C)=O)[C@@]2(C)[C@@H]3C[C@@](C)(OC(C)=O)C[C@@H](OC(C)=O)[C@@]3(OC(C)=O)C[C@@]12C" ?
> 10 µM

TGI for COC(=O)CCC(NC(=S)N/N=C(\C)c1cnccn1)C(=O)OC (centres undefined) ?
> 100 µM

TGI for "O=S(=O)(O)c1ccc2cc3nn(-c4ccc(/C=C/c5ccc(-n6nc7cc8ccc(S(=O)(=O)O)cc8cc7n6)cc5S(=O)(=O)O)c(S(=O)(=O)O)c4)nc3cc2c1" ?
> 100 µM

TGI for "COc1ccc(-c2[nH]c3ccccc3c2/C=C(\C#N)S(=O)(=O)c2ccccc2)cc1" ?
> 26.6 µM

TGI for "COC1=C(OC)C(=O)C(CCCCCCCCCCO)=C(C)C1=O" ?
16.2 µM

TGI for COc1cc(C(=O)C2CC3(CCC2(O)c2cc(OC)c(OC)c(OC)c2)CC(=O)Nc2ccccc2C3=O)cc(OC)c1OC (centres undefined) ?
> 100 µM
